// solubility thermodynamic lookup, one value per entry
Test: Thermodynamic solubility of the compound at pH 2.2
Assay type: physicochemical
Details: buffer, read-out: Therm_solubility

CC[C@@H]1C[C@]1(NC(=O)[C@@H]1C[C@@H](Oc2cc(-c3csc(NC(C)C)n3)nc3c(Cl)c(OCCN4CCCCC4)ccc23)CN1C(=O)[C@@H](NC(=O)O[C@@H]1C[C@@H]2C[C@@H]2C1)C(C)(C)C)C(=O)O: > 100 µM

The molecule listed as "CC[C@@H]1C[C@]1(NC(=O)[C@@H]1C[C@@H](Oc2cc(-c3csc(NC(C)C)n3)nc3c(Cl)c(OCCN4CC[C@@H](OC)C4)ccc23)CN1C(=O)[C@@H](NC(=O)O[C@@H]1C[C@@H]2C[C@@H]2C1)C(C)(C)C)C(=O)O" shows solubility thermodynamic equal to > 100 µM

Record summary for "CC[C@@H]1C[C@]1(NC(=O)[C@@H]1C[C@@H](Oc2cc(-c3csc(NC(C)C)n3)nc3c(Cl)c(OC)ccc23)CN1C(=O)[C@@H](NC(=O)O[C@@H]1C[C@@H]2[C@H](C1)C2(F)F)C(C)(C)C)C(=O)O" : reported solubility thermodynamic = < 6 µM

This collection of values is drawn from ChEMBL document CHEMBL2010675.
